// data source = patent US6350749B1

QUANTITY: melting point

Req: Given the entry Cc1cnnc2c1C(=NNC(=N)N)CC(c1cc(Cl)ccc1Cl)C2.Cl (stereo not drawn) , report its measured melting point.
Resp: 256 to 258 °C

Req: Then this molecule: Cc1coc2c1/C(=N/NC(=N)N)CC(c1ccco1)C2.Cl (stereo not drawn)
Resp: ≥ 300 °C

Req: Then this molecule: Cl.N=C(N)NN=C1CC(c2ccccc2)Cc2[nH]c(=O)ccc21 (stereo not drawn)
Resp: ≥ 300 °C

Req: Then this molecule: Cl.N=C(N)N/N=C1\CC(c2ccccc2Br)Cc2occ(C(F)(F)F)c21 (stereo not drawn)
Resp: 289 °C (dec.)

Req: Then this molecule: Cc1ccccc1C1CC(=NNC(=N)N)c2c(C)c[nH]c2C1.Cl (stereo not drawn)
Resp: 187 °C (dec.)

Req: Then this molecule: Cc1ccnc2c1C(=NNC(=N)NO)CC(c1c(Cl)cccc1Cl)C2.Cl (stereo not drawn)
Resp: 193 to 195 °C (dec.)

Req: Then this molecule: Cc1n[nH]c2c1C(=NNC(=N)N)CC(c1cc(Cl)ccc1Cl)C2.Cl (stereo not drawn)
Resp: 287 °C (dec.)

----------
Here, each record is paired with measured melting point data.

Consider the following illustrative entries.
| MOLECULE | melting point |
| --- | --- |
| Cc1ccccc1C1CC(=NNC(=N)N)c2c(C)cn(S(C)(=O)=O)c2C1.Cl (stereo not shown) | 228 to 230 °C |
| Cc1ccc(Cl)c(C2CC(=NNC(=N)N)c3c(C)ccnc3C2)c1.Cl (stereo not shown) | 240 to 243 °C |

Req: Given the entry CCc1cn(S(C)(=O)=O)c2c1C(=NNC(=N)N)CC(c1ccccc1)C2.Cl (stereo not shown) , report its measured melting point.
Resp: 260 °C (dec.)

Req: Then this molecule: Cc1c2c(nn1CCc1ccccc1)CC(c1ccccc1Cl)CC2=NNC(=N)N.Cl (stereo not shown)
Resp: 185 °C (dec.)

Req: Then this molecule: Cc1ccc(C2CC(=NNC(=N)NO)c3c(C)ccnc3C2)s1.Cl (stereo not shown)
Resp: 210 to 212 °C (dec.)

Req: Then this molecule: COc1ccc(F)cc1C1CC(=NNC(=N)N)c2c(C)ccnc2C1.Cl (stereo not shown)
Resp: ≥ 300 °C

Req: Then this molecule: Cc1ccc(S(=O)(=O)n2ccc3c2CC(c2ccccc2)CC3=NNC(=N)N)cc1.Cl (stereo not shown)
Resp: 252 to 256 °C

Req: Then this molecule: Cc1nc(C)c2c(n1)CC(c1ccccc1Cl)C/C2=N\NC(=N)N.Cl (stereo not shown)
Resp: 242 to 244 °C

Req: Then this molecule: Cc1cc2c([nH]1)CC(c1ccccc1)CC2=NNC(=N)N.Cl (stereo not shown)
Resp: 215 °C (dec.)

Req: Then this molecule: Cc1ccc(F)c(C2CC(=NNC(=N)N)c3c(C)ccnc3C2)c1.Cl (stereo not shown)
Resp: 230 to 235 °C

Req: Then this molecule: Cc1cc(C)c2c(n1)CC(c1ccccn1)CC2=NNC(=N)N.Cl (stereo not shown)
Resp: 201 °C (dec.)

Req: Then this molecule: Cc1ccccc1C1CC(=NNC(=N)N)c2c(C(F)(F)F)coc2C1.Cl (stereo not shown)
Resp: 247 °C (dec.)

----------
Here, each record is paired with measured melting point data.

Consider the following illustrative entries.
| COMPOUND | melting point |
| --- | --- |
| Cc1ccc2c(n1)CC(c1ccccc1C)CC2=NNC(=N)N.Cl (centres unmarked) | 206 °C (dec.) |
| Cc1coc2c1/C(=N/NC(=N)N)CC(c1ccccc1Cl)C2.Cl (centres unmarked) | 300 °C (dec.) |
| Cc1coc2c1/C(=N/NC(=N)N)CC(c1ccccc1Br)C2.Cl (centres unmarked) | 296 °C (dec.) |

Req: Given the entry Cc1n[nH]c2c1C(=NNC(=N)N)CC(c1cc(Cl)sc1Cl)C2.Cl (centres unmarked) [Compound 127] , report its measured melting point.
Resp: ≥ 300 °C

Req: Then this compound: Cc1ccnc2c1C(=NNC(=N)N)CC(c1cc(F)ccc1Cl)C2.Cl (centres unmarked)
Resp: 268 °C (dec.)

Req: Then this compound: COc1ccccc1C1CC(=NNC(=N)N)c2c(C)ccnc2C1.Cl (centres unmarked)
Resp: 192 °C (dec.)

Req: Then this compound: COc1ccc(C2CC(=NNC(=N)N)c3c(C)coc3C2)cc1.Cl (centres unmarked)
Resp: 182 °C (dec.)

Req: Then this compound: Cl.N=C(N)N/N=C1\CC(c2ccccc2)Cc2occ(C(N)=O)c21 (centres unmarked)
Resp: 294 °C (dec.)

Req: Then this compound: Cc1cn(S(C)(=O)=O)c2c1C(=NNC(=N)N)CC(c1ccccc1F)C2.Cl (centres unmarked)
Resp: 286 °C (dec.)

Req: Then this compound: Cc1ccnc2c1C(=NNC(=N)N)CC(c1cc(Cl)ccc1O)C2.Cl (centres unmarked)
Resp: 202 °C (dec.)

Req: Then this compound: Cc1cn(S(C)(=O)=O)c2c1C(=NNC(=N)N)CC(c1ccccc1Cl)C2.Cl (centres unmarked)
Resp: 258 °C (dec.)

Req: Then this compound: Cc1cnnc2c1C(=NNC(=N)N)CC(c1cc(Cl)sc1Cl)C2.Cl (centres unmarked) [Compound 131]
Resp: ≥ 300 °C

Req: Then this compound: Cc1ccnc2c1C(=NNC(=N)NO)CC(c1cc(Cl)sc1Cl)C2.Cl (centres unmarked)
Resp: 196 to 197 °C (dec.)

Req: Then this compound: Cl.N=C(N)NN=C1CC(c2ccccc2)Cc2c1ccn2C(=O)c1ccccc1 (centres unmarked)
Resp: 168 °C (dec.)

Req: Then this compound: Cc1cc(=O)[nH]c2c1C(=NNC(=N)N)CC(c1ccccc1Cl)C2.Cl (centres unmarked)
Resp: ≥ 300 °C

Req: Then this compound: Cc1ccc(Cl)cc1C1CC(=NNC(=N)N)c2c(C)ccnc2C1.Cl (centres unmarked)
Resp: 215 to 220 °C

Req: Then this compound: CCc1cnnc2c1C(=NNC(=N)N)CC(c1ccccc1Cl)C2.CS(=O)(=O)O (centres unmarked) [Compound 133]
Resp: 244 to 245 °C (dec.)

Req: Then this compound: Cc1n[nH]c2c1C(=NNC(=N)NO)CC(c1ccccc1Cl)C2.Cl (centres unmarked) [Compound 93]
Resp: 234 to 235 °C (dec.)

Req: Then this compound: COc1ccnc2c1C(=NNC(=N)N)CC(c1ccccc1Cl)C2.CS(=O)(=O)O (centres unmarked) [Compound 79]
Resp: 158 to 159 °C

Req: Then this compound: CCOC(=O)c1coc2c1/C(=N/NC(=N)N)CC(c1ccccc1)C2.Cl (centres unmarked)
Resp: 260 °C (dec.)

Req: Then this compound: CCc1n[nH]c2c1C(=NNC(=N)N)CC(c1ccccc1Cl)C2.Cl (centres unmarked) [Compound 27]
Resp: 196 to 200 °C

Req: Then this compound: Cc1ccnc2c1C(=NNC(=N)N)CC(c1ccc(F)cc1)C2.Cl (centres unmarked)
Resp: 259 °C (dec.)

Req: Then this compound: Cc1cn[n+]([O-])c2c1C(=NNC(=N)N)CC(c1ccccc1Cl)C2.Cl (centres unmarked)
Resp: 283 to 284 °C

Req: Then this compound: Cc1nn(Cc2ccccc2)c2c1C(=NNC(=N)N)CC(c1ccccc1Cl)C2.Cl (centres unmarked)
Resp: 151 to 153 °C

Req: Then this compound: Cc1ccnc2c1C(=NNC(=N)N)CC(c1sc(Cl)cc1Cl)C2.Cl (centres unmarked)
Resp: 184 to 187 °C

----------
Here, each record is paired with measured melting point data.

| MOLECULE | melting point |
| --- | --- |
| Cc1n[nH]c2c1C(=NNC(=N)N)CC(c1sccc1Cl)C2.Cl (stereo not drawn) | 204 °C (dec.) |
| N=C(N)NN=C1CC(c2cc(Cl)sc2Cl)Cc2nncc(C(F)(F)F)c21 (stereo not drawn) | 265 to 266 °C (dec.) |
| Cc1ccnc2c1C(=NNC(=N)N)CC(c1cc(Cl)ccc1Cl)C2.Cl (stereo not drawn) | ≥ 300 °C |
| CS(=O)(=O)O.Cc1ccnc2c1C(=NNC(=N)N)CC(c1ccccc1Cl)C2 (single isomer, unassigned; (-)) [Compound 64] | 194 to 195 °C |
| Cc1cc(Cl)sc1C1CC(=NNC(=N)N)c2c(C)ccnc2C1.Cl (stereo not drawn) | 193 to 196 °C |

Req: Given the entry Cc1ccc(C)c(C2CC(=NNC(=N)N)c3c(C)ccnc3C2)c1.Cl (stereo not drawn) , report its measured melting point.
Resp: 260 to 262 °C

Req: Then this molecule: CNC(=N)NN=C1CC(c2ccccc2Cl)Cc2[nH]nc(C)c21.Cl (stereo not drawn)
Resp: 240 °C (dec.)

Req: Then this molecule: Cl.N=C(N)NN=C1CC(c2ccccc2Cl)Cc2nncc(-c3ccc(Cl)cc3)c21 (stereo not drawn)
Resp: 196 °C (dec.)

Req: Then this molecule: Cc1ccnc2c1C(=NNC(=N)N)CC(c1cc(Cl)sc1Cl)C2.O=[N+]([O-])O (stereo not drawn)
Resp: 167 °C (dec.)
